Ref: patent US6706663B2

System: ORYSAT (Rice, Tebonnet)
Assay: Postemergence herbicidal evaluation
Assay type: in vivo, Oryza sativa, (L.) Tebonnet
Details: rate 0.1250 kg/ha
We begin with a simple list: items and their reported Postemergence herbicidal rating, ORYSAT.

COMPOUND	Postemergence herbicidal rating, ORYSAT
Cc1ccc(-c2nsc3ccc(-n4c(=O)cc(C(F)(F)F)n(C)c4=O)cc23)s1	4.5
COC(=O)COc1ccsc1-c1nsc2ccc(-n3c(=O)cc(C(F)(F)F)n(C)c3=O)cc12	4.5
COc1ccsc1-c1nsc2ccc(-n3c(=O)cc(C(F)(F)F)n(C)c3=O)cc12	3.0
COC(=O)C(C)Oc1ccsc1-c1nsc2ccc(-n3c(=O)cc(C(F)(F)F)n(C)c3=O)cc12 (stereo not shown)	5.0
